Some molecules, each annotated with its measured Max. Disp. %, 3H-SR141716A.
biological target: human CB1 receptor (Homo sapiens, UniProt P21554); construct: expressed in transfected cells; host or cells: HEK-293; experiment: Radioligand displacement in human CB1 receptor-transfected cells (HEK-293); type: binding; details: human CB1 transfected cells; 3H-SR141716A; Table 5, parallel synthesis analogs
Sequence (P21554 whole entry): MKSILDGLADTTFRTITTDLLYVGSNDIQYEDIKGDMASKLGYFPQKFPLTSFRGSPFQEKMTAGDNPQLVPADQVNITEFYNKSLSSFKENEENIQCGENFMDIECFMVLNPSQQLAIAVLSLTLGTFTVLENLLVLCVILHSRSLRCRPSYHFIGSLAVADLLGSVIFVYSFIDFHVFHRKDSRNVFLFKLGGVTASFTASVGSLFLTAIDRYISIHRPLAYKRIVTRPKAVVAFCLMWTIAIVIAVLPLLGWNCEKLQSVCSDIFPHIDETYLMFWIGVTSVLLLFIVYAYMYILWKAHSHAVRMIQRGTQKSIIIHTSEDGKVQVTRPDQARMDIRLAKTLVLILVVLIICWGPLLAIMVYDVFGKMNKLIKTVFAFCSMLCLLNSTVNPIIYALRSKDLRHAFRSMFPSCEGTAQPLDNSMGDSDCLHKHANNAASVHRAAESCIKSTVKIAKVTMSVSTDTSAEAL
Form entry: value (%) — number only.

{"columns": ["MOLECULE", "READING UNIT", "Max. Disp. %, 3H-SR141716A"],
 "data": [
  ["CCCCCCCCCCCNC(=O)c1nn(-c2ccc(Cl)cc2Cl)c(-c2ccc(Cl)cc2)c1C", "%", 96.9],
  ["CCC(C)CC(C)NC(=O)c1nn(-c2ccc(Cl)cc2Cl)c(-c2ccc(Cl)cc2)c1C (centres unmarked)", "%", 100],
  ["CCCCCCCCCCCCNC(=O)c1nn(-c2ccc(Cl)cc2Cl)c(-c2ccc(Cl)cc2)c1C", "%", 89.8],
  ["Cc1c(C(=O)NCCC(c2ccccc2)c2ccccc2)nn(-c2ccc(Cl)cc2Cl)c1-c1ccc(Cl)cc1", "%", 96.7],
  ["COCC(C)NC(=O)c1nn(-c2ccc(Cl)cc2Cl)c(-c2ccc(Cl)cc2)c1C (centres unmarked)", "%", 98.7]
]}

Q) Which Max. Disp. %, 3H-SR141716A value belongs to CC(C)=CCC/C(C)=C/CNC(=O)c1nn(-c2ccc(Cl)cc2Cl)c(-c2ccc(Cl)cc2)c1C ?
A) 95.7

Q) Which Max. Disp. %, 3H-SR141716A value belongs to CCCCCCCCCCCCCNC(=O)c1nn(-c2ccc(Cl)cc2Cl)c(-c2ccc(Cl)cc2)c1C ?
A) 91.3

Q) Which Max. Disp. %, 3H-SR141716A value belongs to Cc1c(C(=O)NC(C)CCC(C)C)nn(-c2ccc(Cl)cc2Cl)c1-c1ccc(Cl)cc1 (centres unmarked) ?
A) 93.6

---

biological target: CB1 receptor (Rattus norvegicus, UniProt P20272); construct: Whole rat brains or dissected regions from live CD rats; tissue Charles River or Pel-Freez Biologicals; host or cells: whole rat brain (CD rats), P2 membrane; test: Radioligand displacement in whole rat brain (CB1) membrane preparations; type: binding; conditions: whole rat brain membranes; radioligand 3H-SR141716A; Tables 1 and 2
Sequence (P20272 whole entry): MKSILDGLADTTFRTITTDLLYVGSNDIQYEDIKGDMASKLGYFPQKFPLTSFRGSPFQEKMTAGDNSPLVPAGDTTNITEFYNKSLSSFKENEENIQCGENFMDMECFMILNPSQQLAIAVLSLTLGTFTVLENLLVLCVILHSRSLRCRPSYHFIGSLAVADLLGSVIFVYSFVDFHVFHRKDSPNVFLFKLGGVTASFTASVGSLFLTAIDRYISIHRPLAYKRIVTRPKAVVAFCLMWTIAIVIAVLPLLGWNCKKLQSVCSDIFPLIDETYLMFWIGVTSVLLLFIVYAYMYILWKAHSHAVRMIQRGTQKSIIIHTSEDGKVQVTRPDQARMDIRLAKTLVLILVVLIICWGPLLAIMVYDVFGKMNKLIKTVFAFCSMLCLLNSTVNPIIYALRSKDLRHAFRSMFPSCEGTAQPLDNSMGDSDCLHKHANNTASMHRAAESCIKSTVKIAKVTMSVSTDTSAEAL
Some compounds, each annotated with its measured Max. Disp. %, 3H-SR141716A.
Remember to quote the unit after the number.

Before answering, review these 5 worked examples.
{"columns": ["COMPOUND", "Max. Disp. %, 3H-SR141716A"],
 "data": [
  ["Cc1c(C(=O)NC(C)C)nn(-c2ccc(Cl)cc2Cl)c1-c1ccc(Cl)cc1", "100%"],
  ["Cc1c(C(=O)NCCCCO)nn(-c2ccc(Cl)cc2Cl)c1-c1ccc(Cl)cc1", "97.6%"],
  ["CCNC(=O)c1nn(-c2ccc(Cl)cc2Cl)c(-c2ccc(Cl)cc2)c1C [MF9725-54C]", "100%"],
  ["Cc1c(C(=O)NC(C)CO)nn(-c2ccc(Cl)cc2Cl)c1-c1ccc(Cl)cc1 (single isomer, unassigned) [MF9725-106-39]", "100%"],
  ["Cc1c(C(=O)O)nn(-c2ccc(Cl)cc2Cl)c1-c1ccc(Cl)cc1", "0%"]
]}

Q) Which Max. Disp. %, 3H-SR141716A value belongs to Cc1c(C(=O)NN2CCOCC2)nn(-c2ccc(Cl)cc2Cl)c1-c1ccc(Cl)cc1 [MF9725-33D] ?
A) 100%

Q) Which Max. Disp. %, 3H-SR141716A value belongs to Cc1c(C(=O)NCCO)nn(-c2ccc(Cl)cc2Cl)c1-c1ccc(Cl)cc1 ?
A) 85.5%

Q) Which Max. Disp. %, 3H-SR141716A value belongs to CCCCCCCCCNC(=O)c1nn(-c2ccc(Cl)cc2Cl)c(-c2ccc(Cl)cc2)c1C ?
A) 85.8%

---

Some compounds, each annotated with its measured pKi.
biological target: human CB2 receptor (Homo sapiens, UniProt P34972); construct: expressed in transfected cells; host or cells: CHO-K1; experiment: Displacement of 3H-CP55,940 in human CB2 receptor-transfected cells (CHO-K1); assay type: binding; conditions: Ki, displacement of 3H-CP55940, human CB2 transfected cells; radioligand 3H-CP55940; Tables 6 and 7
Sequence (P34972 whole entry): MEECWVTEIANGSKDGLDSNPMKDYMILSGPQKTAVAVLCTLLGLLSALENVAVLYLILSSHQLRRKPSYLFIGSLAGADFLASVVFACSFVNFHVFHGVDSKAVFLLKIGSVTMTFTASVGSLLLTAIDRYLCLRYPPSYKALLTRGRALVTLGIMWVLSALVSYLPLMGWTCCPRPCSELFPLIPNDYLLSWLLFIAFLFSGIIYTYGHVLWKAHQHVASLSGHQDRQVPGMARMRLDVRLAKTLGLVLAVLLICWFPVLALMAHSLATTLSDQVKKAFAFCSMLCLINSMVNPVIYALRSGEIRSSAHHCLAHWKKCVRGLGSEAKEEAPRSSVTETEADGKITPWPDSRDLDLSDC
Note: pKi values are expressed as the negative base-10 logarithm of concentration in M.

{"columns": ["COMPOUND", "TESTED SYSTEM", "pKi"],
 "data": [
  ["CCCCCCCCCNC(=O)c1nn(-c2ccc(Cl)cc2Cl)c(-c2ccc(Cl)cc2)c1C [MF10110-10-21]", "human CB2 receptor (Homo sapiens, UniProt P34972)", 4.64],
  ["CCCCCCCCNC(=O)c1nn(-c2ccc(Cl)cc2Cl)c(-c2ccc(Cl)cc2)c1C [MF9879-164-28]", "human CB2 receptor (Homo sapiens, UniProt P34972)", 4.01]
]}

Q) Which pKi value belongs to CCCCCCCNC(=O)c1nn(-c2ccc(Cl)cc2Cl)c(-c2ccc(Cl)cc2)c1C [MF9725-133-25] ?
A) 5.40

Q) Which pKi value belongs to Cc1c(C(=O)NC(C)CO)nn(-c2ccc(Cl)cc2Cl)c1-c1ccc(Cl)cc1 (single isomer, unassigned) [MF9725-106-39] ?
A) 5.75

Q) Which pKi value belongs to CCCCCCC(C)(C)NC(=O)c1nn(-c2ccc(Cl)cc2Cl)c(-c2ccc(Cl)cc2)c1C [MF10110-119-11] ?
A) 4.78

Q) Which pKi value belongs to Cc1c(C(=O)NC(C)CO)nn(-c2ccc(Cl)cc2Cl)c1-c1ccc(Cl)cc1 (single isomer, unassigned) [MF9725-105-38] ?
A) 5.23

---

target: CB1 receptor (Rattus norvegicus, UniProt P20272); construct: Whole rat brains or dissected regions from live CD rats; tissue Charles River or Pel-Freez Biologicals; host or cells: whole rat brain (CD rats), P2 membrane; experiment: Radioligand displacement in whole rat brain (CB1) membrane preparations; assay type: binding; settings: read-out: Ki, displacement of 3H-CP55940; whole rat brain membranes; radioligand 3H-CP55940; Tables 1 and 2
ENDPOINT NAME: Ki (nM)
Form entry: value (nM) — number only.

Before answering, review these 3 worked examples.
{"columns": ["CPD SMILES", "ENDPOINT NAME", "ASSAY RESULT"],
 "data": [
  ["Cc1c(C(=O)NO)nn(-c2ccc(Cl)cc2Cl)c1-c1ccc(Cl)cc1", "Ki", 1690],
  ["Cc1c(C(=O)NCC(C)C)nn(-c2ccc(Cl)cc2Cl)c1-c1ccc(Cl)cc1", "Ki", 11.5],
  ["CCCCCNC(=O)c1nn(-c2ccc(Cl)cc2Cl)c(-c2ccc(Cl)cc2)c1C", "Ki", 11.4]
]}

Now, please, on to the next molecule.
Q) Which Ki value belongs to Cc1c(C(=O)NCCCO)nn(-c2ccc(Cl)cc2Cl)c1-c1ccc(Cl)cc1 ?
A) 160

---

target: human CB1 receptor (Homo sapiens, UniProt P21554); construct: expressed in transfected cells; host or cells: HEK-293; test: Radioligand displacement in human CB1 receptor-transfected cells (HEK-293); format: binding; conditions: Ki, displacement of 3H-WIN55212-2
ENDPOINT NAME: pKi
Note: pKi values are expressed as the negative base-10 logarithm of concentration in M.

Before answering, review these 3 worked examples.
{"columns": ["COMPOUND", "ASSAY RESULT"],
 "data": [
  ["Cc1c(C(=O)NC(C)CCCC(C)C)nn(-c2ccc(Cl)cc2Cl)c1-c1ccc(Cl)cc1 (stereo not shown)", 7.19],
  ["CCCCCNC(=O)c1nn(-c2ccc(Cl)cc2Cl)c(-c2ccc(Cl)cc2)c1C", 7.73],
  ["CCCCCCCCCNC(=O)c1nn(-c2ccc(Cl)cc2Cl)c(-c2ccc(Cl)cc2)c1C", 5.45]
]}

Now, please, on to the next compound.
Q) Could you share what pKi was measured for CCCCCCC(C)(C)NC(=O)c1nn(-c2ccc(Cl)cc2Cl)c(-c2ccc(Cl)cc2)c1C , tested on human CB1 receptor (Homo sapiens, UniProt P21554)?
A) 7.84

---

biological target: CB1 receptor (Rattus norvegicus); construct: Whole rat brains or dissected regions from live CD rats; tissue Charles River or Pel-Freez Biologicals; host or cells: whole rat brain (CD rats), P2 membrane; assay: Radioligand displacement in whole rat brain (CB1) membrane preparations; assay type: binding; conditions: read-out: Ki, displacement of 3H-CP55940; whole rat brain membranes; radioligand 3H-CP55940; Tables 1 and 2
ENDPOINT NAME: Ki (nM)
Form entry: value (nM) — number only.

Before answering, review these 3 worked examples.
{"columns": ["COMPOUND", "READING UNIT", "ASSAY RESULT"],
 "data": [
  ["Cc1c(C(=O)NCCCCO)nn(-c2ccc(Cl)cc2Cl)c1-c1ccc(Cl)cc1", "nM", 154],
  ["Cc1c(C(=O)NC(C)C)nn(-c2ccc(Cl)cc2Cl)c1-c1ccc(Cl)cc1", "nM", 29.4],
  ["Cc1c(C(=O)NN)nn(-c2ccc(Cl)cc2Cl)c1-c1ccc(Cl)cc1", "nM", 374]
]}

Now, please, on to the next compound.
Q) Could you share what Ki was measured for CCCNC(=O)c1nn(-c2ccc(Cl)cc2Cl)c(-c2ccc(Cl)cc2)c1C [MF9725-55C] , tested on CB1 receptor (Rattus norvegicus)?
A) 29.9
